# test.target: Anti-CD28 scFv (VH - linker 1 - VL) (biotinylated (site not stated))
# Sequence (scFv, as listed by the source): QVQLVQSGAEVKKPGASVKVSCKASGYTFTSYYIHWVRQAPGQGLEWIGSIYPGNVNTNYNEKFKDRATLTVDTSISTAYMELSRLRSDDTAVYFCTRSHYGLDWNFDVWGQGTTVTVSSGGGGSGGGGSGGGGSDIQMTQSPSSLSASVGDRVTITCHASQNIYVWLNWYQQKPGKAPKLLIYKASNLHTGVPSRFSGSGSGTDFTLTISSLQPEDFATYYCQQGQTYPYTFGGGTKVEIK
# experiment.notes: phage binding ELISA; biotinylated anti-CD28 scFv on neutravidin plate, clonal phage supernatant, anti-M13 HRP detection
Where no end group is shown, it is not given here.
property.measured: CD28 scFv signal
Reply with the value as a number alone.

binder | CD28 scFv signal
MSWCPIHLWNECFN (peptide, not shown: large carriers, cysteine pairing not given here; also: displayed on phage by fusion to pIII, linker and pIII sequence not given here) [Phage-49 clonal phage peptide] | 2.06
MDWCPMYLWNECFN (peptide, not shown: large carriers) [Phage-65 clonal phage peptide] | 2.61
MDWCPIDMWDQCFN (peptide, not shown: large carriers) [Phage-40 clonal phage peptide] | 2.66
MDWCPSYLWNECFF (peptide, not shown: large carriers) [Phage-62 clonal phage peptide] | 2
MDWCPRHLWVHCFN (peptide, not shown: large carriers) [Phage-42 clonal phage peptide] | 2.5

[in] Please look at this binder and report its CD28 scFv signal: MDWCPRDSWHLCFA (peptide, not shown: large carriers) [Phage-59 clonal phage peptide]
[out] 2.45
